Molecular target: T1, HLA-B*07:02 (human)
T1 construct: Peptide-receptive monomer in the UV-ligand exchange assay
Assay: UV peptide exchange, anti-b2m ELISA; exchange yield grade
Source text: Candidate peptides for T cell based therapies according to the present invention were further tested for their MHC binding capacity (affinity). The individual peptide-MHC complexes were produced by UV-ligand exchange, where a UV-sensitive peptide is cleaved upon UV-irradiation and exchanged with the peptide of interest as analyzed. Only peptide candidates that can effectively bind and stabilize the peptide-receptive MHC molecules prevent dissociation of the MHC complexes. […]
Kindly supply the reported peptide exchange yield values for the records listed here.

APGPRSQGL
50 to 75%

Take each entry in turn and give its peptide exchange yield.
1. RPQGVGPAA
2. MPIQVLKGL
3. RAPLPLLLL
4. LPALLRSL
5. IPLHFSTAF

Given back:
≥ 75%
≥ 75%
50 to 75%
≥ 75%
≥ 75%

Take each entry in turn and give its peptide exchange yield.
1. APQPRSLAA
2. RPIWDVRSA

Given back:
1. ≥ 75%
2. ≥ 75%
